System: Saccharomyces cerevisiae;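 note: PSI is a weighted mean of sequencing reads over stability bins, variants kept only with over 10 reads, mCherry proximal and sfGFP distal, peptide attached via GGGS linker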
Experiment: protein stability index of tFT-peptide fusion (C-terminal peptide) (PSI (0-1 scale)); higher = more stable (slower turnover)
Conditions: genetic background: wild type; temperature: 30 C
The following sequences are shown together with reported protein stability index values.
ASSAY_ENDPOINT: protein stability index

- RFAPCSPPADPS: 0.68
- IIGVKNEGRGRE: 0.724
- VFFRVLVAGCRQ: 0.522
- VPDRIFRSASQT: 0.714
- SGDVGVGHWVGG: 0.692
- PRPSPFIGLPFP: 0.749
- ALQVKWRGCLRF: 0.733
- MRAIRPGHSDLV: 0.629
- GSDVPCFLSLSY: 0.711
- KKGIKEYYKVQK: 0.775
- GTVGRPNATGKV: 0.742
